Provide the recorded Plant response rating, Ryegrass, Italian for the entries that follow.
Test system: Italian ryegrass (Lolium multiflorum)
ASSAY SUMMARY: Test C pre-/postemergence plant response
Format: in vivo
PARTICULARS: Preemergence, 62 g ai/ha; scale 0 to 100, 0 no effect, 100 complete control
One number for each entry.

# example entries with known answers
CCc1cc(-c2ccc(F)cc2)nn1-c1c(O)cnn(C)c1=O
75
Cc1cc(-c2ccc(Cl)cc2)nn1-c1c(OC(=O)c2ccccc2)cnn(C)c1=O
100
C#CCOC(=O)Oc1cnn(C)c(=O)c1-n1nc(-c2ccc(Cl)cc2)cc1C
100

Note: attention shifts to another entry.
Exam item: Quick check: Plant response rating, Ryegrass, Italian on Italian ryegrass (Lolium multiflorum), item CCc1cc(-c2ccc(C(F)(F)F)cc2)nn1-c1c(OS(C)(=O)=O)cnn(C)c1=O ?
Marked response: 100
